Molecular target: Tyrosyl-tRNA synthetase, putative (Trypanosoma cruzi (strain CL Brener))
Sequence (whole entry): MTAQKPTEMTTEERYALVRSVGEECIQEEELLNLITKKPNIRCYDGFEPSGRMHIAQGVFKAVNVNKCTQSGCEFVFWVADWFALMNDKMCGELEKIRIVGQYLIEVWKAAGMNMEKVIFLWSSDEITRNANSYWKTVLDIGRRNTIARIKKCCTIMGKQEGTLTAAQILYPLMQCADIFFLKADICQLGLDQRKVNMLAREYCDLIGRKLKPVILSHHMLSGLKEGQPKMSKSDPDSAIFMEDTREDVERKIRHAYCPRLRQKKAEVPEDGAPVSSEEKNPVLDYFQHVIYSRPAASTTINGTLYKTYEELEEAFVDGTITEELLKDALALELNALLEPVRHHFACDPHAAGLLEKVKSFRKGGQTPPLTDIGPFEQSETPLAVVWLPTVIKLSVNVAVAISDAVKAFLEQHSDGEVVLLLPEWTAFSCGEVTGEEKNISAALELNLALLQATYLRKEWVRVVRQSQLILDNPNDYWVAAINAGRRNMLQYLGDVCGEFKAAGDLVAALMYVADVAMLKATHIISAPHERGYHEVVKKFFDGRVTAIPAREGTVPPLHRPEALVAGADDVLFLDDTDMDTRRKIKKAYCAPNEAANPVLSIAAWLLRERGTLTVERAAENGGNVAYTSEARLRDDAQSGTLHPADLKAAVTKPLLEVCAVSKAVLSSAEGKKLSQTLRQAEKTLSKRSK
Assay: Trypanosoma cruzi tyrosyl tRNA synthetase (TcYRS) SOP
Assay type: functional
Parameters: scale not given: direction of the effect not stated beside the values
Settings: 30 µM
Reported values of Percent Effect for individual entries
RECORDED_METRIC: Percent Effect (%)

Cc1cc(CN2CCC(CNC(=O)c3nccc4ccccc34)C2)[nH]n1 (centres undefined) ... 25.9
Cc1ccc(-n2nnc(CC(=O)N3CCOCC3)c2C)cc1 ... 18.5
O=C(C1CC(=O)N(C2CCCC2)C1)N1CCN(CCn2cccc2)CC1 (centres undefined) ... 13.6
CCN(CC)Cc1ccc(C(=O)N2CCCCC2Cn2cccn2)o1 (centres undefined) ... 1.22
Cc1nn(C)c(C)c1C1CCCN1CC(=O)Nc1ccncc1 (centres undefined) ... -11.1
Cc1nc(CN2C(=O)CCC23CCN(c2ncccn2)CC3)cs1 ... 5
CC(C)(C(=O)NCC(N)=O)c1ccccc1F ... 0
CNS(=O)(=O)c1ccc(C(=O)N2CCCC2c2cnn(C)c2)o1 (centres undefined) ... 6.17
CCOc1ccc(-n2nnc(C(=O)O)c2-c2ccccn2)cc1 ... 13
CC(C)(CO)NC(=O)C1CCC(=O)N(Cc2ccc(Cl)cc2)C1 (centres undefined) ... 0
Cc1nn(C)c(C)c1NC(=O)CN1CCc2c(nc(C(C)C)n2C)C1 ... 14.6
Cc1ccc(C(=O)N2CCCC(NC(=O)C(C)C)C2)c(O)c1 (centres undefined) ... 25.9
COc1cnc(N2CCC(Oc3ccccc3OC)(C(=O)O)CC2)nc1 ... 8.64
O=C(Nc1nccs1)N(CCO)Cc1ccsc1 ... 29.3
CCc1cccc(NS(=O)(=O)c2cc3c(c(C(=O)O)c2)OCCO3)c1 ... -7.59
O=C(C1CCS(=O)(=O)C1)N1CCN(c2cnccn2)CC1 (centres undefined) ... 15.8
O=C(c1ccc(C2CCCO2)s1)N1Cc2ccccc2C1 (centres undefined) ... 0
CCN(CC1CN(CCc2ccccn2)CCO1)c1cccnn1 (centres undefined) ... 1.24
O=C(CCc1ccccc1)N1CCC(N2CCNC2=O)CC1 ... 14.1
O=C(NC1CC1)[C@@H]1CCO[C@@H]2CCN(C3CCOCC3)C[C@@H]21 ... 1.24
CC(C)N(CC(N)=O)Cc1csc(Cc2ccccc2)n1 ... 11.4
CCn1ncc2c1CCCC2NCc1ccc(OC)c(C)c1 (centres undefined) ... 16.5
CCS(=O)(=O)N1CCC[C@]2(C(=O)N(C)C)CN(c3ccccn3)C[C@@H]2C1 ... 12.5
Cc1ncsc1C(=O)N(C)Cc1ccncc1 ... -7.32
